Hello, the source for this data is ChEMBL document CHEMBL1140729, in case you need it.

Test system: Brain
Experiment: Inhibition of Fe2+-induced lipid peroxidation in rat brain homogenate
Assay type: functional, tissue-based
parameter-measured: IC50 (µM)

Before answering, review these 3 worked examples.
CC[C@@]12C=C(C(=O)OCCOC(=O)c3ccccc3)n3c4c(c5ccccc53)CCN(CCC1)[C@@H]42 :: 18.2
CC[C@]12C=C(C(=O)OCCOC(C)=O)n3c4c(c5ccccc53)CCN(CCC1)[C@H]42 :: 15.2
CC[C@]12C=C(C(=O)OCCO)n3c4c(c5ccccc53)CCN(CCC1)[C@H]42 :: 13.6

1. CCOC(=O)C1=C[C@]2(CC)CCCN3CCc4c(n1c1ccccc41)[C@H]32
2. Cc1cc(C(C)(C)C)c(O)c(C(C)(C)C)c1 [BUTYLATED HYDROXYTOLUENE]
Higher IC50 between 1 and 2 ? Answer by stating the label of the chosen item.
1

---

Tested on: Rattus norvegicus
Assay: Protective effect against diazepam-induced learning-deficit in Wistar rat at 5 mg/kg, po by water labyrinth test
Type: functional
We begin with a simple list: items and their reported Activity.
Provide only the numeric value, understood in %.

Before answering, review these 4 worked examples.
CC[C@@]12C=C(C(=O)OCCO)n3c4c(c5ccccc53)CCN(CCC1)[C@H]42 :: 80.3
CCOC(=O)C1=C[C@]2(CC)CCCN3CCc4c(n1c1ccccc41)[C@@H]32 :: 56.6
CC[C@@]12C=C(C(=O)[O-])n3c4c(c5ccccc53)CCN(CCC1)[C@@H]42.[Na+] :: 71.3
CC[C@@]12C=C(C(=O)OCCO)n3c4c(c5ccccc53)CCN(CCC1)[C@@H]42 :: 81.1

Now for a further compound.
Quick one: Activity for CC[C@@]12C=C(C(=O)O)n3c4c(c5ccccc53)CCN(CCC1)[C@H]42 ?
66.7

---

Test system: Brain
Assay: Inhibition of Fe2+-induced lipid peroxidation in rat brain homogenate
Format: functional, tissue-based
parameter-measured: IC50 (µM)

Before answering, review these 2 worked examples.
O=c1c(O)c(-c2ccc(O)c(O)c2)oc2cc(O)cc(O)c12 [QUERCETIN] :: 10.7
CCC(=O)OCCOC(=O)C1=C[C@@]2(CC)CCCN3CCc4c(n1c1ccccc41)[C@@H]32 :: 15.8

a. COC1=C(OC)C(=O)C(CCCCCCCCCCO)=C(C)C1=O [IDEBENONE]
b. CC[C@@]12C=C(C(=O)OCCOC(=O)c3ccc(Cl)cc3)n3c4c(c5ccccc53)CCN(CCC1)[C@@H]42
Lab log: flag the item ( a or b ) with the smaller IC50 figure. Answer by stating the label of the chosen item.
b
